B1: library; numbered along this chain (parent)
chain: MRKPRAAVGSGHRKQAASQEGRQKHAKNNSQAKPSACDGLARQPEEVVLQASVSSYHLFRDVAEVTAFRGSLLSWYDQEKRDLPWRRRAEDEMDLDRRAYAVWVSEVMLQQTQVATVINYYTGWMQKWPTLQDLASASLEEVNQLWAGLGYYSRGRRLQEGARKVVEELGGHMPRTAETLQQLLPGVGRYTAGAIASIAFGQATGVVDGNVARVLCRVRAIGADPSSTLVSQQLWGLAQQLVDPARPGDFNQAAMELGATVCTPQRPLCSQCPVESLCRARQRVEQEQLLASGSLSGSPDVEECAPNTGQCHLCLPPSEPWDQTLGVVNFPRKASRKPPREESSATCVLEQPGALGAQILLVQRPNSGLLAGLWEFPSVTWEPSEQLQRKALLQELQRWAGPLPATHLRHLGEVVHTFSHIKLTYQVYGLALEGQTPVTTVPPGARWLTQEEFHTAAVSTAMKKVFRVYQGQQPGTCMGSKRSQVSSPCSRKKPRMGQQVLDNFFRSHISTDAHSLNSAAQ

# Variants of: B1
# ASSAY_PROCEDURE: 8OG:A repair function score (normalized; synonymous = 0, nonsense = -1) (normalized log-likelihood score); higher = more repair activity (WT-like);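 also: cells sorted at 72 h after reporter transfection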
# MEASUREMENT_PARAMETERS: with 8OG:A DNA repair reporter (GFP) in HEK-293 MUTYH KO cells
Here, each record is paired with measured 8OG:A repair function score data.
PROPERTY_NAME: 8OG:A repair function score

>>> endpoint_result("S378N")
0.0818
>>> endpoint_result("G353S")
-0.0386
>>> endpoint_result("L134W")
-0.665
>>> endpoint_result("E168C")
0.0112
>>> endpoint_result("Q288F")
-0.016
>>> endpoint_result("A519E")
0.0285
>>> endpoint_result("S153T")
0.158
>>> endpoint_result("E64D")
-0.0139
>>> endpoint_result("S507I")
-0.0448
>>> endpoint_result("G150M")
-1.44
>>> endpoint_result("V102H")
-2.8
>>> endpoint_result("K127Y")
-0.398
>>> endpoint_result("K492F")
-0.0038
>>> endpoint_result("V485H")
0.0165
>>> endpoint_result("G186I")
-1.23
>>> endpoint_result("A162E")
-1.14
>>> endpoint_result("N503C")
0.00549
>>> endpoint_result("V211D")
-0.988
>>> endpoint_result("V274H")
-0.563
>>> endpoint_result("R163T")
-0.128
>>> endpoint_result("L315D")
-0.206
>>> endpoint_result("P316E")
0.0013
>>> endpoint_result("A203F")
-0.255
>>> endpoint_result("Q271N")
0.0195
>>> endpoint_result("L325R")
-0.00254
>>> endpoint_result("M125T")
-0.339
>>> endpoint_result("Q363H")
0.0355
>>> endpoint_result("E385L")
0.0198
>>> endpoint_result("E350Q")
-0.13
>>> endpoint_result("V284T")
0.0102
>>> endpoint_result("Q182S")
0.0262
>>> endpoint_result("V102A")
-0.644
>>> endpoint_result("P443T")
-0.199
>>> endpoint_result("L448A")
-0.105
>>> endpoint_result("S74Q")
0.00637
>>> endpoint_result("V48E")
-0.122
>>> endpoint_result("W321V")
-0.0988
>>> endpoint_result("I421G")
-0.609
